The following binders are shown together with reported kon values.
Molecular target: T1, recombinant human MSLN ECD His-tag protein (Acro Biosystems, Catalog #MSN-H5223) (human, UniProt Q13421 296-580, limits assumed)
T1 construct: extracellular domain; Bought protein; also called human MSLN protein; recombinant human MSLN-His tag; not shown: His-tag
T1 sequence (Q13421 other isoform, or with tags, fused parts or gaps limits assumed): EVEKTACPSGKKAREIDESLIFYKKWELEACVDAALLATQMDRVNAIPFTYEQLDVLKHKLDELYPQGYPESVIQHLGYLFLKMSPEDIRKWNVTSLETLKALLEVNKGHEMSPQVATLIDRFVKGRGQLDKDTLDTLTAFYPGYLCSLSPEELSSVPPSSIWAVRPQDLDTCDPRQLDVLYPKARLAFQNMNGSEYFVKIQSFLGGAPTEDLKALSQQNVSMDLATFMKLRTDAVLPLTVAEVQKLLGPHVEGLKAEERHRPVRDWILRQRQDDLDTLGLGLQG
Assay: BLI (Octet Red384), antibody on AHC sensor, human MSLN-His in solution
Description: In the example, binding kinetics of anti-MSLN antibodies to soluble MSLN were analyzed by Octet Red384 (Fortebio). In Bio-Layer Interferometry (BLI) analysis, recombinant human MSLN-His tag (Acro Biosystems, Catalog #MSN-H5223) was serially diluted with 1× kinetic buffer (Fortebio). Anti-MSLN antibodies were diluted to 5 μg/mL. […] Rate constants for association and dissociation were measured using AHC sensor (Fortebio). […]
# output: bare number, implied unit M⁻¹ s⁻¹

Observe how each entry below is paired with its result.
PR300159-3 (antibody, V domains shown, PTM removal variant of PR300159: heavy chain G33A and G55A) VH: QVQLVESGGGVVQPGRSLRLSCAASGFTFSSDAMNWVRQAPGKGLEWVAVIWNDASNKYYADSVKGRFTISRDNSKNTLYLQMNSLRAEDTAVYYCARDRGPLWPLDYWGQGTLVTVSS VL: DIQMTQSPSTLSASVGDRVTITCRASQSISRWLAWYQQKPGKAPKLLIYKASSLESGVPSRFSGSGSGTEFTLTISNLQPDDFATFYCQQYNSYSRTFGQGTKVEIKR; 828000
PR300159-4 (antibody, V domains shown, PTM removal variant of PR300159: light chain S93A) VH: QVQLVESGGGVVQPGRSLRLSCAASGFTFSSDGMNWVRQAPGKGLEWVAVIWNDGSNKYYADSVKGRFTISRDNSKNTLYLQMNSLRAEDTAVYYCARDRGPLWPLDYWGQGTLVTVSS VL: DIQMTQSPSTLSASVGDRVTITCRASQSISRWLAWYQQKPGKAPKLLIYKASSLESGVPSRFSGSGSGTEFTLTISNLQPDDFATFYCQQYNAYSRTFGQGTKVEIKR; 978000
PR300159-1 (antibody, V domains shown, PTM removal variant of PR300159: heavy chain G33A and D54E, light chain N92S) VH: QVQLVESGGGVVQPGRSLRLSCAASGFTFSSDAMNWVRQAPGKGLEWVAVIWNEGSNKYYADSVKGRFTISRDNSKNTLYLQMNSLRAEDTAVYYCARDRGPLWPLDYWGQGTLVTVSS VL: DIQMTQSPSTLSASVGDRVTITCRASQSISRWLAWYQQKPGKAPKLLIYKASSLESGVPSRFSGSGSGTEFTLTISNLQPDDFATFYCQQYSSYSRTFGQGTKVEIKR; 947000
PR300159 (antibody, V domains shown, Parental antibody from Harbour H2L2 mice) VH: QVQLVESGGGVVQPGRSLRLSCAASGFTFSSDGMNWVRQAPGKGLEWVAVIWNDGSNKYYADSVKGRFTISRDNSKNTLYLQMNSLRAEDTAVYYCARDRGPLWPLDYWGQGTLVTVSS VL: DIQMTQSPSTLSASVGDRVTITCRASQSISRWLAWYQQKPGKAPKLLIYKASSLESGVPSRFSGSGSGTEFTLTISNLQPDDFATFYCQQYNSYSRTFGQGTKVEIKR; 1.28e+06

Inquiry: Look at this binder and give its reported kon. PR300159-9 (antibody, V domains shown, PTM removal variant of PR300159: heavy chain G33A and D54E, light chain S93A) VH: QVQLVESGGGVVQPGRSLRLSCAASGFTFSSDAMNWVRQAPGKGLEWVAVIWNEGSNKYYADSVKGRFTISRDNSKNTLYLQMNSLRAEDTAVYYCARDRGPLWPLDYWGQGTLVTVSS VL: DIQMTQSPSTLSASVGDRVTITCRASQSISRWLAWYQQKPGKAPKLLIYKASSLESGVPSRFSGSGSGTEFTLTISNLQPDDFATFYCQQYNAYSRTFGQGTKVEIKR
Reply text: 566000
